- protocolDetails: Solubility of the compound in phosphate buffer at pH 7.4 after 2 hrs by UV-HPLC method
- Format: physicochemical
endpointName: solubility at 2 h

// known answers, use as guide
>  <itemSmiles>
Cc1cc(C#N)cc(C)c1Oc1ccnc(NCCn2ccc(=O)[nH]c2=O)n1

>  <endpointName>
solubility at 2 h

>  <result>
62.9 µg/mL

$$$$
>  <itemSmiles>
Cc1cc(/C=C/C#N)cc(C)c1Oc1nc(NCCn2ccc(=O)[nH]c2=O)ncc1Cl

>  <endpointName>
solubility at 2 h

>  <result>
< 0.1 µg/mL

$$$$
>  <itemSmiles>
Cc1cc(/C=C/C#N)cc(C)c1Oc1cc(N)nc(NCCn2ccc(=O)[nH]c2=O)n1

>  <endpointName>
solubility at 2 h

>  <result>
0.43 µg/mL

$$$$

[in] For `Cc1cc(/C=C/C#N)cc(C)c1Oc1ccnc(NCCn2ccc(=O)[nH]c2=O)n1` , what is its reported solubility at 2 h?
[out] < 1 µg/mL

----------
- protocolDetails: Inhibition of wild-type HIV1 reverse transcriptase assessed as decrease in biotin-dUTP incorporation using poly(A)/oligo(dT)15 as template/primer after 1 hr by ELISA
- Set-up: species or system Human immunodeficiency virus 1
IC50 listing for selected compounds.
Numbers only here, please. The scale is nM.

Worked set:
>  <itemSmiles>
Cc1cc(C#N)cc(C)c1Oc1nc(Nc2ccc(C#N)cc2)nc(N)c1Br

>  <unitsText>
nM

>  <IC50>
1000

$$$$
>  <itemSmiles>
Cc1cc(/C=C/C#N)cc(C)c1Oc1nc(NCCn2ccc(=O)[nH]c2=O)ncc1Cl

>  <unitsText>
nM

>  <IC50>
1580

$$$$

[in] Reported IC50 for `Cc1ccnc2c1NC(=O)c1cccnc1N2C1CC1` : what is it?
[out] 1390

----------
- Tested on: Human immunodeficiency virus 1
- protocolDetails: Antiviral activity against HIV1 harboring E138K mutant infected in human MT4 cells assessed as protection against virus-induced cytopathic effect measured at 5 days post infection by MTT assay
- Assay type: functional, cell-based
- studyConditions: Human immunodeficiency virus 1, MT4, 120 h
Structures can show the parent of a compound that is named as a salt.
endpointName: pEC50
Just the number, please; pEC50 means minus log10 of the concentration in mol/L.

Some entries whose results are on file:
>  <molecule>
Cc1cn([C@H]2C[C@H](N=[N+]=[N-])[C@@H](CO)O2)c(=O)[nH]c1=O [ZIDOVUDINE]

>  <pEC50>
7.89

$$$$
>  <molecule>
Cc1cc(/C=C/C#N)cc(C)c1Oc1cc(N)nc(NCCn2ccc(=O)[nH]c2=O)n1

>  <pEC50>
6.08

$$$$
>  <molecule>
CC(C)Nc1cccnc1N1CCN(C(=O)c2cc3cc(NS(C)(=O)=O)ccc3[nH]2)CC1 [DELAVIRDINE MESYLATE]

>  <pEC50>
7.37

$$$$

[in] Please look up its pEC50: `Cc1cc(/C=C/C#N)cc(C)c1Oc1nc(NCCn2ccc(=O)[nH]c2=O)ncc1Cl`
[out] 7.47

----------
- protocolDetails: Cytotoxicity against human MT4 cells after 5 days by MTT assay
- Format: cell-based
endpointName: CC50 at 120 h (µM)
The figure you give is taken to be in µM; do not add the unit.

Recorded results for 2 compounds are shown here.
>  <itemSmiles>
Cc1cc(C)cc(Oc2cc(NCCn3ccc(=O)[nH]c3=O)nc(Cl)n2)c1

>  <unitsText>
µM

>  <number>
99.5

$$$$
>  <itemSmiles>
Cc1cc(C)c(Oc2cc(NCCn3ccc(=O)[nH]c3=O)nc(Cl)n2)c(C)c1

>  <unitsText>
µM

>  <number>
76.4

$$$$

Below: the item to evaluate.
[in] So what does the record say about CC50 at 120 h for `Cc1cc(C#N)cc(C)c1Oc1cc(Cl)nc(NCCn2ccc(=O)[nH]c2=O)n1` ?
[out] 20.6
